Origin of values: PubChem BioAssay

System: E3 ubiquitin-protein ligase XIAP (Homo sapiens) (UniProt P98170)
Sequence (P98170 whole entry, looked up): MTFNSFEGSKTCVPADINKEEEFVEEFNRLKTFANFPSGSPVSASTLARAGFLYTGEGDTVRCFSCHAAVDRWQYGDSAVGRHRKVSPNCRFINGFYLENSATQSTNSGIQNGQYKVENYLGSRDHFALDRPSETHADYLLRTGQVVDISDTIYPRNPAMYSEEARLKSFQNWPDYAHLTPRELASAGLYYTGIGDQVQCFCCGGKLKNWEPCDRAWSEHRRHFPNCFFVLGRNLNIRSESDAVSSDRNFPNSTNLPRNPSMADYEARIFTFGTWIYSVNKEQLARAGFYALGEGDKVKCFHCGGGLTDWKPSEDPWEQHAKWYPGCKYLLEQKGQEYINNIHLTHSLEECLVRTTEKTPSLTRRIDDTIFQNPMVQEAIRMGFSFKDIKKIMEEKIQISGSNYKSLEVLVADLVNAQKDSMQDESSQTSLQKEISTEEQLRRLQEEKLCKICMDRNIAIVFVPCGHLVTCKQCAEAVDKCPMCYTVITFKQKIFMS
Assay Remarks: XIAP binders, primary screen, biophysical, small-molecule microarray, fluorescence 635 nm (AID 1181);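 also: score merges 667 nm emission and signal to noise over triplicate slides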
Assay Context: small-molecule microarray binding, higher = more signal
composite z-score values, listed per item
Please respond with just the number, no unit label.

O=C1[C@H]2[C@H]3[C@H](O)[C@H](O)CC(=NOCc4ccccc4)[C@@H]3CC[C@H]2C(=O)N1C[C@@H]1CCCO1; -0.211
COCCNC(=O)OCC1CCCC2(CC(OC(=O)NCc3ccc4c(c3)OCO4)CC(CCC(=O)N[C@@H](C)C(=O)OC)O2)O1 (some centres undefined); -0.173
CCOC(=O)[C@H](Cc1ccccc1)NC(=O)CCC1CC(OC(=O)NCc2ccc3c(c2)OCO3)CC2(CCCC(COC(=O)NCCC(C)C)O2)O1 (some centres undefined); -0.0559
CC(C)(C)N1C(=O)[C@H]2[C@H]3[C@H](O)[C@H](O)CC(=NO[C@@H]4O[C@H](CO)[C@@H](O)[C@H](O)[C@H]4O)[C@H]3CC[C@H]2C1=O; -0.142

-- ask composite z-score lookup needed for CC(C)(C)N1C(=O)[C@H]2[C@H]3[C@H](O)[C@H](O)CC(=NOCc4ccccc4)[C@H]3CC[C@H]2C1=O , thanks.
-- reply -0.102

-- ask Any idea what its composite z-score is? The compound is C[C@H]1CC[C@H]2C(=O)OC(CO)CN2[C@@H]1c1ccc(Br)cc1 (some centres undefined)
-- reply 0.213

-- ask Find the recorded composite z-score belonging to CC(C)=CCCC(C)=CCON=C1C[C@@H](O)[C@@H](O)[C@@H]2[C@@H]3C(=O)N(C(C)(C)C)C(=O)[C@@H]3CC[C@@H]12 and report it.
-- reply -0.172

-- ask So what's the measured composite z-score for this one? C[C@H]1CC[C@H]2C(=O)O[C@H](COc3ccc(C(C)(C)C)cc3)CN2[C@@H]1c1ccc(Br)cc1
-- reply -0.19

-- ask Which composite z-score value belongs to CC(C)(C)N1C(=O)[C@H]2[C@H]3[C@H](O)[C@H](O)CC(=O)[C@@H]3CC[C@H]2C1=O ?
-- reply -0.177

-- ask Can you look up the measured composite z-score of COc1cccc([C@H]2Oc3ccc(OC)cc3C(=NOC[C@@H](O)COCc3ccco3)[C@@H]2O)c1 for me?
-- reply 0.0785

-- ask Name the reported composite z-score value associated with the compound C[C@H](ON=C1[C@H]2CCn3c(=O)n(-c4ccccc4)c(=O)n3[C@H]2[C@H](O)[C@@H]2O[C@H]12)c1cn([C@H](CO)Cc2ccccc2)nn1
-- reply -0.106

-- ask // composite z-score lookup, key: COc1ccc(O[C@H]2C=C[C@@H](c3ccccc3)O[C@@H]2COC(=O)CCC(C)=NO[C@@H]2O[C@H](COC(C)=O)[C@@H](OC(C)=O)[C@H](OC(C)=O)[C@H]2OC(C)=O)cc1
-- reply 0.461

-- ask May I ask what composite z-score has been recorded for CC(C)CCN1CCc2nc(COc3ccccc3)c3c(c2C1)CO[C@@H](C)C3 ?
-- reply -0.161

-- ask Which composite z-score value belongs to C=CC[C@@H]1C=C[C@H](ON=C[C@@H](C)[C@H](OCc2ccccc2)C(C)C)[C@@H](CO)O1 ?
-- reply -0.138

* * *

Assay Remarks: E. coli acrAB mutant growth effects, primary screen, E. coli filamentation inducers, strain DRC39, OD650, 24 h (AID 1178);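 also: growth measured as culture turbidity by optical density at 650 nm; test concentration not given here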
Assay Context: higher = more signal, called active from +8 up or from −8 down
Catalogue of compounds with associated z-score
No unit in the answer, only the number.

CO[C@@H]1COC(=O)CC=C[C@@H](C)[C@H](OC)COC(=O)[C@@H](C)COC(=O)CC=C[C@H]1C; 0.666

-- ask What value of z-score has been reported for the following compound? CC(=O)OC[C@H]1O[C@H](C#Cc2ccccc2)C=C[C@@H]1OC(C)=O
-- reply 0.731

-- ask Which measured z-score value corresponds to CCOC(=O)[C@H](Cc1ccccc1)NC(=O)CCC1CC(OC(=O)NCCc2ccc(F)cc2)CC2(CCCC(COC(=O)NCC3CCCCC3)O2)O1 (some centres not stated) ?
-- reply 0.828

-- ask Item under review: C[C@@H]1CC[C@H]2C(=O)O[C@@H](Cc3ccccc3)CN2[C@H]1c1ccc(Br)cc1 . Reported z-score?
-- reply -0.402

-- ask So what does the record say about z-score for CC(C)(C)N1C(=O)[C@H]2[C@H]3[C@H](O)[C@H](O)CC(=NO[C@@H]4O[C@H](CO)[C@@H](O)[C@H](O)[C@H]4O)[C@H]3CC[C@H]2C1=O ?
-- reply -0.341

* * *

Recorded composite z-score, one value per entry.
System: Neurogenic locus notch homolog protein 2 (Homo sapiens) (UniProt Q04721)
Sequence (Q04721 whole entry, looked up): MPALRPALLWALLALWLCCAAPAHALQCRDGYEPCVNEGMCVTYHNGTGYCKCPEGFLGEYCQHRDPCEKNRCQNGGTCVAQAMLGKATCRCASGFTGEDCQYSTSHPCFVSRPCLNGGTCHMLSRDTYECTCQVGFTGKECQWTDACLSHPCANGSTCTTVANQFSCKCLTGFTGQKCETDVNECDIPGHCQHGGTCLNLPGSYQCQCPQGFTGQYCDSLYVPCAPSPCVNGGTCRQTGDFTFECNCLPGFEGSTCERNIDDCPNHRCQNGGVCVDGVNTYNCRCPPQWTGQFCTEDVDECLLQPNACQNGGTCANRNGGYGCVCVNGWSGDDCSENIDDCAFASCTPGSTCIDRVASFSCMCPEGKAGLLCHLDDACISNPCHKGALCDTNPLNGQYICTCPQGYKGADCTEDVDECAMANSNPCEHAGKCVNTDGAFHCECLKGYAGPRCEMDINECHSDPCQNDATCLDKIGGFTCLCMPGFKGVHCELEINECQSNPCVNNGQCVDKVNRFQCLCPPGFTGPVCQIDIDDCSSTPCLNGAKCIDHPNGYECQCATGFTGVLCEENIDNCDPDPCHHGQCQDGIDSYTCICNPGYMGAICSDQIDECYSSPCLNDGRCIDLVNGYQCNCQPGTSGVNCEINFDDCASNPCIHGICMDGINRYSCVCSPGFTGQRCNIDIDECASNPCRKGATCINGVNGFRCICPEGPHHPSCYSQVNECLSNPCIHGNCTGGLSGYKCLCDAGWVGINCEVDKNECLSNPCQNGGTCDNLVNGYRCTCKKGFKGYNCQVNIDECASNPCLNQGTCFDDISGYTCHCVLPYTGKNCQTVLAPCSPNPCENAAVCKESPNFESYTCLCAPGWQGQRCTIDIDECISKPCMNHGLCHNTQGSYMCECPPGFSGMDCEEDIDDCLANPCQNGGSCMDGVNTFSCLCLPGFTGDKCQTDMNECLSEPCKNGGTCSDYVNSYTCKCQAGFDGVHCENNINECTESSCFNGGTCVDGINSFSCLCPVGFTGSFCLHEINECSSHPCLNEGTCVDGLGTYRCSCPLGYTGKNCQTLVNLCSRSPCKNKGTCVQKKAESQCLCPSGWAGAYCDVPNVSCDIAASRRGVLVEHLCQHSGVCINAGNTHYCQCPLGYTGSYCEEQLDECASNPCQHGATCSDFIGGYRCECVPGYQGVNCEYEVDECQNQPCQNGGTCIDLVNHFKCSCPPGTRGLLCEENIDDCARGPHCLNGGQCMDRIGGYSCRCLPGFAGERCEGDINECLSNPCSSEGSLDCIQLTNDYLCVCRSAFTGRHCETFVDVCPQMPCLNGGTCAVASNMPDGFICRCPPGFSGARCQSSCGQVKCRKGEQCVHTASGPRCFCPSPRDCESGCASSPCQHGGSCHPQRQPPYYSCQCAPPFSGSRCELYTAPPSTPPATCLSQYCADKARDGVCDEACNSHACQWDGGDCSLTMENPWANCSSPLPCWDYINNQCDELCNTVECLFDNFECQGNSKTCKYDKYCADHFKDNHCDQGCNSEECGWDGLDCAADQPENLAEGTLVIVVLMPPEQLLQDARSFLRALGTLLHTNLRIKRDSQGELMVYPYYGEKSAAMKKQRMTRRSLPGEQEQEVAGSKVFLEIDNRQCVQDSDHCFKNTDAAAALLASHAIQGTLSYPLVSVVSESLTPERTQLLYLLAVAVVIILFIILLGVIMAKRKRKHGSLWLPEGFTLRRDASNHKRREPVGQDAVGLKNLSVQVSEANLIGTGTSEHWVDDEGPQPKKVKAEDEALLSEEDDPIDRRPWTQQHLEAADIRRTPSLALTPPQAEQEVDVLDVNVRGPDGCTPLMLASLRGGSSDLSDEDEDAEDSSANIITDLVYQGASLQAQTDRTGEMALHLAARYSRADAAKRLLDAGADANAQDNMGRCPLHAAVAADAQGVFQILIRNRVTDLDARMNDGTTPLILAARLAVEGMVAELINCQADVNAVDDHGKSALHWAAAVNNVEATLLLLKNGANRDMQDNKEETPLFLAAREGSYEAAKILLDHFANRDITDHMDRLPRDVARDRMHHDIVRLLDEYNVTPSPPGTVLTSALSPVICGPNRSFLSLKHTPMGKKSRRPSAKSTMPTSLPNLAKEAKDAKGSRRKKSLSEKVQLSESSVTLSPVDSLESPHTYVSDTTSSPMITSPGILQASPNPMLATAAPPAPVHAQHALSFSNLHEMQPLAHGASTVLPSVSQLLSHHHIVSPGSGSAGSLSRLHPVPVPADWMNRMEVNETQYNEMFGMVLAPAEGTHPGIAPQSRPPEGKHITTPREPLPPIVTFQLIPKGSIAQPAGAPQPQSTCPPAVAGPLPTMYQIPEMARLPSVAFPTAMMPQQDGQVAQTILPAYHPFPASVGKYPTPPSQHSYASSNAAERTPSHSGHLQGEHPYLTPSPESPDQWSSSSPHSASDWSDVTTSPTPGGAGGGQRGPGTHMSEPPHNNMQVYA
Assay Remarks: Notch2 binders on small-molecule microarrays, primary screen, biochemical, small-molecule microarray, 635 nm fluorescence, stem cell growth factors (AID 1073)
Assay Context: Notch2 binding, higher = more signal

-- ask // returns reported composite z-score for input O=C1CCCC=C1C(CCc1ccccc1)OC(=O)c1ccc(Br)cc1 (stereo unspecified)
-- reply 0.047

-- ask I would be grateful if you could share the reported composite z-score for C#CCCCON=C1C[C@@H](O)[C@@H](O)[C@@H]2[C@@H]3C(=O)N(c4ccc(F)cc4F)C(=O)[C@@H]3CC[C@@H]12 .
-- reply 0.329

-- ask What does the record list as composite z-score for COC(=O)[C@@H]1CC[C@H](C)[C@@H](c2ccc(C)cc2)N1C(=O)c1ccc(C=NOC[C@@H](C)[C@H](OCc2ccccc2)C(C)C)cc1 ?
-- reply 1.13

-- ask Would you mind telling me what composite z-score value was observed for CC(C)=CCCC(C)=CCON=C1C[C@@H](O)[C@@H](O)[C@@H]2[C@@H]3C(=O)N(Cc4ccccc4)C(=O)[C@@H]3CC[C@H]12 ?
-- reply 0.686

-- ask Entry under review: C#CCCCON=C1C[C@@H](O)[C@@H](O)[C@@H]2[C@@H]3C(=O)N(C(C)(C)C)C(=O)[C@@H]3CC[C@@H]12 . Reported composite z-score?
-- reply -0.707

* * *

Assay Remarks: PSAC antagonists in infected red cells, primary screen, cell-based, P. falciparum Indochina, OD700, 2 h (AID 1155);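 also: lysis reports solute entry through the parasite surface anion channel PSAC; channel blockers reduce lysis of infected cells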
Assay Context: P. falciparum Indochina infected erythrocytes, osmotic lysis OD700; higher = more signal, called active from +8 up or from −8 down
Property Name: z-score
Give the figure only, with no unit attached.

// below: answered compounds
COC(=O)CC=C[C@@H](C)[C@@H](C=NO[C@H](C)c1cn([C@H](CO)Cc2ccccc2)nn1)NS(=O)(=O)c1ccc(C)cc1; 0.674
Cc1ccc(S(=O)(=O)n2c3ccccc3c3nnc(C(=O)c4ccccc4)nc32)cc1; 0.266
CC(C)CON=C1C[C@@H](O)[C@@H](O)[C@@H]2[C@@H]3C(=O)N(C4CCCCC4)C(=O)[C@@H]3CC[C@@H]12; -0.346

-- ask Looking for the measured z-score of COc1ccc(O[C@H]2C=C[C@@H](c3ccccc3)O[C@@H]2CON=C(C)CCN2CCc3nc(-c4ccccc4)c(-c4ccccc4)cc3C2)cc1 , can you help?
-- reply 1.25

-- ask State the recorded z-score for this entry: Cc1ccc(S(=O)(=O)N[C@H]2COC(=O)CC=C[C@@H](C)COC(=O)CC=C[C@@H]2C)cc1
-- reply -0.162

-- ask Requested field: z-score. Item: CCOC(=O)[C@H](CC(C)C)NC(=O)CCC1CC(OC(=O)NCCc2ccc(F)cc2)CC2(CCCC(COC(=O)NCC(c3ccccc3)c3ccccc3)O2)O1 (some centres not stated)
-- reply -0.523

-- ask Could you tell me which z-score is on file for CO[C@H]1COC(=O)CC=C[C@H](C)[C@@H](OC)COC(=O)[C@H](C)COC(=O)CC=C[C@@H]1C ?
-- reply 0.202

* * *

System: Torsin-1A-interacting protein 1 (Homo sapiens)
Assay Remarks: LAP1 binders from COS7 cell lysate, primary screen, small-molecule microarray, 635/667 nm fluorescence (AID 1116)
Assay Context: COS7-hLAP1 lysate binding, 635 nm fluorescence, higher = more signal
Property Name: composite z-score
Respond using a number only.

The examples below pair each entry with its known result.
COc1ccc(O[C@H]2C=C[C@@H](c3ccccc3)O[C@@H]2CON=C(C)C)cc1; 0.314
O=C1[C@H]2[C@H]3[C@H](O)[C@H](O)CC(=NOCc4ccccc4)[C@@H]3CC[C@H]2C(=O)N1C[C@@H]1CCCO1; -0.126
C#CCCCON=C1[C@H]2CCn3c(=O)n(-c4ccccc4)c(=O)n3[C@H]2[C@H](O)[C@@H]2O[C@H]12; -0.131
Cc1ccc(S(=O)(=O)N[C@@H]2COC(=O)[C@@H](C)COC(=O)CC=C[C@H]2C)cc1; 0.216
CC(CCN1CCCCc2nc(C)c(C)cc21)=NOC[C@@H](O)COCc1ccco1; 0.43
CCOC(=O)[C@H](CC(C)C)NC(=O)CCC1CC(OC(=O)NCc2cccc3ccccc23)CC2(CCCC(COC(=O)NCC3CCCCC3)O2)O1 (stereo partly drawn); 0.158

-- ask Given the entry C#CCCCON=C1C[C@@H](O)[C@@H](O)[C@@H]2[C@@H]3C(=O)N(c4ccc(F)cc4F)C(=O)[C@@H]3CC[C@H]12 , report its measured composite z-score.
-- reply -0.0188

-- ask Value lookup for composite z-score; key = CC(C)=CCCC(C)=CCON=C1C[C@@H](O)[C@@H](O)[C@@H]2[C@@H]3C(=O)N(C[C@@H]4CCCO4)C(=O)[C@@H]3CC[C@H]12
-- reply 0.986
